Biological target: Recombinant human TLR7 (Homo sapiens)
Construct: TLR7 in vector pUNO, blasticidin selection
Sequence (Q9NYK1 27-1049): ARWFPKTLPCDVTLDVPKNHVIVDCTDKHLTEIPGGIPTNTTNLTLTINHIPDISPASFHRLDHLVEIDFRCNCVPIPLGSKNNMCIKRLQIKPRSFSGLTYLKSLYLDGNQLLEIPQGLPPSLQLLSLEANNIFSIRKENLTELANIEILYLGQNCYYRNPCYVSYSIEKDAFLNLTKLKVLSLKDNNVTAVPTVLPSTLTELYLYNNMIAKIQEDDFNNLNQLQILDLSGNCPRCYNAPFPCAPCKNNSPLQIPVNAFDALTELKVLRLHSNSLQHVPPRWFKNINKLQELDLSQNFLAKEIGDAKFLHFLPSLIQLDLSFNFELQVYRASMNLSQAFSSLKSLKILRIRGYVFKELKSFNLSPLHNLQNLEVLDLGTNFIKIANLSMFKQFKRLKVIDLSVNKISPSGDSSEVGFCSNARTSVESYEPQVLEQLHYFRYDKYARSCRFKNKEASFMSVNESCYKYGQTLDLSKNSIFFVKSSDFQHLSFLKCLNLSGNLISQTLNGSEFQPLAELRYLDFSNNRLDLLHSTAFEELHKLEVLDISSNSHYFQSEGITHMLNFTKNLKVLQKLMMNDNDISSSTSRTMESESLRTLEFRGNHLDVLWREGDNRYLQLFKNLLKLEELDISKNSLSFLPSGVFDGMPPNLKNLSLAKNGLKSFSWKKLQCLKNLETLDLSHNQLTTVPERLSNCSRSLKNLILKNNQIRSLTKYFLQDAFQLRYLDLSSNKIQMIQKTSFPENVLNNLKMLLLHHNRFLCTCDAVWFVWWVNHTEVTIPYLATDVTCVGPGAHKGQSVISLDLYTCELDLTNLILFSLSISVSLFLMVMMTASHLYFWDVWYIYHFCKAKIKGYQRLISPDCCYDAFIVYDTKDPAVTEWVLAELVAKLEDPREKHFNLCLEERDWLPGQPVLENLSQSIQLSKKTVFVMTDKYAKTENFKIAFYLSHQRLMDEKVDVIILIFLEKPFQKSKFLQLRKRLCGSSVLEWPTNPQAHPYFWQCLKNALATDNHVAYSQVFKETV
Assay: Human TLR7 assay (HEK293 SEAP reporter)
Conditions: degree of TLR7 activation; SEAP induction in HEK293 cells stably expressing recombinant human TLR7 and pNiFty2-SEAP reporter, overnight incubation at 37° C., 0.1% (v/v) DMSO
pEC50: −log10 of the molar value.
EXPERIMENTAL_READOUT: pEC50

| MOLECULE | pEC50 |
| --- | --- |
| CCCCCNc1nc(N)nc(C)c1Cc1ccc(C(=O)OC)cc1F | 5.70 |
| CCCCCNc1nc(N)nc(C)c1Cc1cccc(O)c1 | 5.30 |
| CCCCCNc1nc(N)nc(C)c1Cc1ccc(OCCCN(C)C)cc1 | 7.20 |

(a) CCCCCNc1nc(N)nc(C)c1Cc1cccc(OCCN2CCCC2)c1
(b) CCCCCNc1nc(N)nc(C)c1Cc1ccc(OCCCN(C)C)cc1OC
Lab notebook, comparison: a versus b , higher pEC50 goes to which? Give the label under which the chosen entry appears. b
(b: 8.60, a: 5.90)
